assay target: 5-hydroxytryptamine receptor 1A (Homo sapiens) (UniProt P08908)
Sequence (P08908 whole entry): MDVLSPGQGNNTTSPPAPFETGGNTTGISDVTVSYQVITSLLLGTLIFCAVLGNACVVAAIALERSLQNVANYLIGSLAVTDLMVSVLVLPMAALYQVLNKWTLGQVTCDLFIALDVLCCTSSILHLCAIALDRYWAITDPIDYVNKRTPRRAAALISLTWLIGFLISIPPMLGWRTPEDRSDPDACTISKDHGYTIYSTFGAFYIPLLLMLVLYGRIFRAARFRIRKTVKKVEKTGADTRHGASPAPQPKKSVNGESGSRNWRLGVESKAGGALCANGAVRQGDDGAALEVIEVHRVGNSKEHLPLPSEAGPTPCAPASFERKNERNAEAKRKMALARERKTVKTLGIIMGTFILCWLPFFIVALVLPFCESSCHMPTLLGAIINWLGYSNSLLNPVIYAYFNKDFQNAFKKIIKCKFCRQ
test protocol: Antagonist activity against CHO cells expressing the human 5-hydroxytryptamine 1A receptor in a forskolin stimulated adenylate cyclase (FSC) assay.
Assay type: functional, cell-based
value kind: FSC recovery (%)
Report the value in % with no unit label.

Which value of FSC recovery has been reported for COc1ccc(CCCCNCCOc2cc(F)cc3c2OCCC3O)cc1 (stereo in doubt; (-)-34) in the records?
111

Which value of FSC recovery has been reported for COc1ccc(CCCCNCCOc2cc(F)cc3c2OC(C)(C)CC3)cc1 in the records?
44

Which value of FSC recovery has been reported for O=C1CCOc2c(OCCNCCCCc3ccc4c(c3)OCCO4)cc(F)cc21 in the records?
65

Which value of FSC recovery has been reported for COc1ccc(CCCCCNCCOc2cc(F)cc3c2OC(C)CC3)cc1 (centres undefined) in the records?
59
